system: CP266; assay: qHTS profiling for inhibitors of Plasmodium falciparum proliferation (AID 504749); note: nearly all actives have a fitted effect of over 60% in size; conditions: P. falciparum in erythrocytes, SYBR Green DNA, 72 h; series mostly up to 28.7 µM
Results filed as inconclusive are left out. Calls of active or inactive are those of the source. Calls come from the whole dose curve; as a rule, active = well fitted inhibition curve with a large enough effect; inconclusive = small, poorly fitted or top-dose-only effect; inactive = flat fitted curve, though single readings scatter.
Tick one outcome: active, inactive

Would you mind telling me which call this test gave Cc1ccccc1OCC(O)CO (stereo not drawn) ? inactive

Would you mind telling me which call this test gave C/C=C/C=N/NC(=O)c1ccncc1 ? inactive

Would you mind telling me which call this test gave CCN1/C(=C/C=C/c2sc3ccccc3[n+]2CC)Sc2ccccc21 ? active

Would you mind telling me which call this test gave CCCCCCCCNC(C)C(O)c1ccc(SC(C)C)cc1 (stereo not drawn) ? active

Would you mind telling me which call this test gave NC(=S)N/N=C/c1cccnc1 ? inactive

----------
assay: qHTS of pediatric cancer cell lines to identify multiple opportunities for drug repurposing: Primary screen for Saos-2 cells (AID 1347097); conditions: Saos-2 viability, CellTiter-Glo ATP luminescence, 48 h; series mostly up to 46 µM; note: nearly all actives have a fitted effect of over 40% in size
Results filed as inconclusive are left out. Activity calls are given as the source filed them. Calls follow the shape of the dose curve; as a rule, active = well fitted cell-killing curve with a large enough effect; inconclusive = small, poorly fitted or top-dose-only effect; inactive = no such curve, though single readings can be large or run the other way.
Tick one outcome: 1.0 = active, 0.0 = inactive

INSERT INTO results (smilescode, labelvalue) VALUES
  ('CCN(CC)CCNC(=O)COc1ccc(OC)cc1', 0.0),
  ('CC(=O)NC(=O)c1ccccc1O', 0.0),
  ('NS(=O)(=O)c1ccc(Cl)c(S(N)(=O)=O)c1', 0.0),
  ('CC(C)(C)CC(C)(C)c1ccc(O)c(-n2nc3ccccc3n2)c1', 0.0),
  ('OCc1ccccn1', 0.0);

Would you mind telling me which call this test gave CCCCCCCC/C=C\CCCCCCCCN ? 0.0

Would you mind telling me which call this test gave NCCNc1cccc2ccccc12 ? 0.0

Would you mind telling me which call this test gave CC(=O)O[C@]1(C(C)=O)CC[C@H]2[C@@H]3C=C(Cl)C4=CC(=O)CC[C@]4(C)[C@H]3CC[C@@]21C ? 0.0

Would you mind telling me which call this test gave O=C(NC1CCN(CCc2c[nH]c3ccccc23)CC1)c1ccccc1 ? 0.0

Would you mind telling me which call this test gave NC(=O)C1(N2CCCCC2)CCN(CCCC(=O)c2ccc(F)cc2)CC1 ? 0.0

Would you mind telling me which call this test gave C[C@@]12C(=O)OC(=O)[C@]1(C)C1CCC2O1 ? 1.0

Would you mind telling me which call this test gave CCCCOC(=O)CC(CC(=O)OCCCC)(OC(C)=O)C(=O)OCCCC ? 0.0

----------
tested on: TAB165; test: qHTS profiling for inhibitors of Plasmodium falciparum proliferation (AID 504749); note: nearly all actives have a fitted effect of over 60% in size; conditions: P. falciparum in erythrocytes, SYBR Green DNA, 72 h; series mostly up to 28.7 µM
Results filed as inconclusive are left out. Activity calls are given as the source filed them. Calls follow the shape of the dose curve; as a rule, active = well fitted inhibition curve with a large enough effect; inconclusive = small, poorly fitted or top-dose-only effect; inactive = flat fitted curve, though single readings scatter.
Tick one outcome: YES = active, NO = inactive

The following compounds have reported results that may help.
INSERT INTO results (compound, labelvalue) VALUES
  ('C/C=C/C=N/NC(=O)c1ccncc1', 'NO'),
  ('O=C(O)C1(C(=O)O)CCC1.[NH2-].[NH2-].[Pt+2]', 'NO'),
  ('CCOc1ccccc1OCCN[C@H](C)Cc1ccc(OC)c(S(N)(=O)=O)c1', 'NO'),
  ('CCCN(CCC)S(=O)(=O)c1ccc(C(=O)O)cc1', 'NO'),
  ('C#C[C@]1(OC(C)=O)CC[C@H]2[C@@H]3CCC4=C/C(=N/O)CC[C@@H]4[C@H]3CC[C@@]21CC', 'NO'),
  ('O=C1C(=O)c2ccccc2C(O)=C1C1CCC(c2ccc(Cl)cc2)CC1 (stereo unspecified)', 'YES'),
  ('O=S(c1cc(Cl)cc(Cl)c1O)c1cc(Cl)cc(Cl)c1O', 'YES'),
  ('CCN1/C(=C/C=C/c2sc3ccccc3[n+]2CC)Sc2ccccc21', 'YES');

Would you mind telling me which call this test gave NCCNc1cccc2ccccc12 ? NO

Would you mind telling me which call this test gave OCCOCCN1CCN(C2=Nc3ccccc3Sc3ccccc32)CC1 ? NO

Would you mind telling me which call this test gave CCCN(CCc1cccs1)[C@H]1CCc2c(O)cccc2C1 ? YES

----------
test system: CP217; test: qHTS profiling for inhibitors of Plasmodium falciparum proliferation (AID 504749); note: nearly all actives have a fitted effect of over 60% in size; settings: P. falciparum in erythrocytes, SYBR Green DNA, 72 h; series mostly up to 28.7 µM
Records with an inconclusive call do not appear. Activity calls are given as the source filed them. The call rests on the fitted dose curve; in most records, active means well fitted inhibition curve with a large enough effect; inconclusive means small, poorly fitted or top-dose-only effect; inactive means flat fitted curve, though single readings scatter.
Tick one outcome: active, inactive

INSERT INTO assay_data (molecule, assaytarget, labelvalue) VALUES
  ('CCC(C(=O)OCCOCCN(CC)CC)c1ccccc1 (configuration not stated)', 'CP217', 'inactive');

Would you mind telling me which call this test gave O=C(NC1CCN(CCc2c[nH]c3ccccc23)CC1)c1ccccc1 ? inactive

Would you mind telling me which call this test gave CC(=O)NC(=O)c1ccccc1O ? inactive

Would you mind telling me which call this test gave CCOC(=O)c1ccc(N)cc1 ? inactive

Would you mind telling me which call this test gave CCOC(=O)Nc1ccc2c(c1)N(C(=O)CCN1CCOCC1)c1ccccc1S2 ? inactive

Would you mind telling me which call this test gave CCCCCCCC/C=C\CCCCCCCCN ? inactive

Would you mind telling me which call this test gave NCc1ccccc1Sc1ccccc1CO ? inactive

----------
assay: qHTS of pediatric cancer cell lines to identify multiple opportunities for drug repurposing: Primary screen for TC32 cells (AID 1347089); details: TC32 Ewing sarcoma viability, CellTiter-Glo luminescence, 48 h; series mostly up to 45.8 µM; note: nearly all actives have a fitted effect of over 60% in size
Inconclusive results are not listed. The source made the active and inactive calls. Calls follow the shape of the dose curve; as a rule, active = well fitted cell-killing curve with a large enough effect; inconclusive = small, poorly fitted or top-dose-only effect; inactive = flat fitted curve, though single readings scatter.
Tick one outcome: active, inactive

Would you mind telling me which call this test gave OC[C@H]1O[C@@H]2O[C@H]3[C@H](O)[C@@H](O)[C@@H](O[C@H]4[C@H](O)[C@@H](O)[C@@H](O[C@H]5[C@H](O)[C@@H](O)[C@@H](O[C@H]6[C@H](O)[C@@H](O)[C@@H](O[C@H]7[C@H](O)[C@@H](O)[C@@H](O[C@H]8[C@H](O)[C@@H](O)[C@@H](O[C@H]1[C@H](O)[C@H]2O)O[C@@H]8CO)O[C@@H]7CO)O[C@@H]6CO)O[C@@H]5CO)O[C@@H]4CO)O[C@@H]3CO ? inactive

Would you mind telling me which call this test gave CO[C@]12C[C@@H](COC(=O)c3cncc(Br)c3)CN(C)[C@@H]1Cc1cn(C)c3cccc2c13 ? inactive

Would you mind telling me which call this test gave C[C@@]12C(=O)OC(=O)[C@]1(C)C1CCC2O1 ? active

Would you mind telling me which call this test gave c1ccc(CC2=NCCN2)cc1 ? inactive

Would you mind telling me which call this test gave O=C1c2cccc3c2[C@H](CCC3)CN1[C@@H]1CN2CCC1CC2 ? inactive

----------
test system: CP291; experiment: qHTS profiling for inhibitors of Plasmodium falciparum proliferation (AID 504749); note: nearly all actives have a fitted effect of over 60% in size; details: P. falciparum in erythrocytes, SYBR Green DNA, 72 h; series mostly up to 28.7 µM
Inconclusive results are not listed. Active and inactive are the calls of the source. The call rests on the fitted dose curve; in most records, active means well fitted inhibition curve with a large enough effect; inconclusive means small, poorly fitted or top-dose-only effect; inactive means flat fitted curve, though single readings scatter.
Tick one outcome: yes (1) = active, no (0) = inactive

INSERT INTO results (molecule, labelvalue) VALUES
  ('CC(C)Cc1ccc(CC(=O)O)cc1', 'no (0)'),
  ('O=C1C(CCS(=O)c2ccccc2)C(=O)N(c2ccccc2)N1c1ccccc1 (configuration not stated)', 'no (0)'),
  ('c1ccc(CC2=NCCN2)cc1', 'no (0)'),
  ('CC(=O)Nc1ccc(S(=O)(=O)Nc2ccc([N+](=O)[O-])cc2)cc1', 'no (0)');

Would you mind telling me which call this test gave c1ccc(-c2nc[nH]c2-c2ccccc2)cc1 ? no (0)

Would you mind telling me which call this test gave CCCCN=C(N)N=C(N)N ? no (0)

Would you mind telling me which call this test gave CCN1/C(=C/C=C/c2sc3ccccc3[n+]2CC)Sc2ccccc21 ? yes (1)

----------
system: NIH3T3; assay: Cytotoxic Profiling of Annotated Libraries Using Quantitative High-Throughput Screening (AID 1296008); conditions: Five cell lines viability, CellTiter-Glo ATP luminescence, 48-72 h; active compounds read low
Inconclusive results are not listed. Calls of active or inactive are those of the source. Calls follow the shape of the dose curve; as a rule, active = well fitted inhibition curve with a large enough effect; inconclusive = small, poorly fitted or top-dose-only effect; inactive = flat fitted curve, though single readings scatter.
observedProperty: max response

Study these solved cases before continuing.
INSERT INTO measurements (smilescode, val) VALUES
  ('Cc1cccc(C)c1NC(=O)CN1CCCCCC1', '1.11% (inactive)'),
  ('OC[C@H]1O[C@@H]2O[C@H]3[C@H](O)[C@@H](O)[C@@H](O[C@H]4[C@H](O)[C@@H](O)[C@@H](O[C@H]5[C@H](O)[C@@H](O)[C@@H](O[C@H]6[C@H](O)[C@@H](O)[C@@H](O[C@H]7[C@H](O)[C@@H](O)[C@@H](O[C@H]8[C@H](O)[C@@H](O)[C@@H](O[C@H]1[C@H](O)[C@H]2O)O[C@@H]8CO)O[C@@H]7CO)O[C@@H]6CO)O[C@@H]5CO)O[C@@H]4CO)O[C@@H]3CO', '-2.76% (inactive)'),
  ('COc1cc(C(=O)N2CCCCCCC2)cc(OC)c1OC', '2.92% (inactive)'),
  ('O=C(NCCc1c[nH]c2ccccc12)c1cccnc1', '0.897% (inactive)'),
  ('COc1cc(NS(=O)(=O)c2ccc(N)cc2)ncn1', '-12.1% (inactive)'),
  ('CCN(CC)CCOC(=O)C1(c2ccccc2)CCCC1', '2.7% (inactive)'),
  ('CCCCCCCC/C=C\CCCCCCCCN', '-3% (inactive)');

Below: the item to evaluate.
Report max response for Cc1nc(-c2ccc(Cl)cc2)oc1COC(C)(C)C(=O)O please. 1.1% (inactive)
